Protocol Text: blockers of DNA damage checkpoint Chk1 activation – imaging, HeLa, hydroxyurea, phospho-Chk1 antibody, percent positive cells, primary screen (AID 1186)
Measurement Context: hydroxyurea-induced phospho-Chk1 immunofluorescence imaging, higher = more signal
Assign class by z-score: not lower than -0.2 means condition met; lower than -0.2 means condition not met.

Check out these entries, answers already filled in.
O=P(NCC1(CC2(c3ccccc3)CO2)CC1)(c1ccccc1)c1ccccc1 (stereo not drawn) | condition met
CN1C(=O)C2C=CC(C(O)C3=C[C@H]4C[C@@H](C3)C4(C)C)N(Nc3ccc([N+](=O)[O-])cc3[N+](=O)[O-])C2C1=O (stereo partly drawn) | condition not met
C=CC[C@@]1(C(=O)NCc2ccccc2)N=C(c2ccc(OCCCO)cc2)O[C@@H]1c1ccccc1CN=[N+]=[N-] | condition met
C=CCC(OC(C)=O)[C@@H]1[C@@H](N(Cc2cc3ccccc3o2)C(=O)c2ccc(-c3ccccc3)cc2)c2cc(OCCCO)ccc2N1C(=O)Cc1ccc2ccccc2c1 (stereo partly drawn) | condition met
Cc1ccc(S[C@]2(C(=O)NCCN3CCOCC3)CC(=O)N(C3CCCCC3)[C@@H]2c2ccc(CO)cc2)cc1 | condition met

Ask: Given [N-]=[N+]=NCc1ccccc1C[C@]1(C(=O)N2CCOCC2)N=C(c2ccc(OCCCO)cc2)O[C@H]1c1ccccc1 , state whether its z-score is at least -0.2.
Reply: condition not met

Ask: Same question, [N-]=[N+]=Nc1ccccc1[C@@H]1OC(c2ccc(OCCCO)cc2)=N[C@]1(CCS(=O)(=O)c1ccccc1)C(=O)N1CCCCC1 this time
Reply: condition met
